# assay_procedure: Drug metabolism in pig liver microsomes assessed as substrate inhibition of IRI-O-5-monoglucuronide formation incubated for 5 mins prior to UDPGA addition measured after 90 mins by Eadie-Hoftsee plot analysis
# Format: ADME, Sus scrofa
observable: pKi
FYI, pKi means -log10 of a concentration in mol per litre.

Item O=c1c(-c2ccc(O)cc2)coc2cc3c(c(O)c12)OCO3 has what recorded pKi? 3.74

---

# assay_system: Liver microsome
# assay_procedure: Drug metabolism in Sprague-Dawley rat liver microsomes assessed as substrate inhibition of IRI-O-5-monoglucuronide formation incubated for 5 mins prior to UDPGA addition measured after 90 mins by Eadie-Hoftsee plot analysis
# Type: ADME
observable: Ki (µM)
A number alone suffices; assume µM.

Item O=c1c(-c2ccc(O)cc2)coc2cc3c(c(O)c12)OCO3 has what recorded Ki? 65.3
